# subject-of-test: CYP1A2 (Homo sapiens)
# Sequence (P05177 1-516): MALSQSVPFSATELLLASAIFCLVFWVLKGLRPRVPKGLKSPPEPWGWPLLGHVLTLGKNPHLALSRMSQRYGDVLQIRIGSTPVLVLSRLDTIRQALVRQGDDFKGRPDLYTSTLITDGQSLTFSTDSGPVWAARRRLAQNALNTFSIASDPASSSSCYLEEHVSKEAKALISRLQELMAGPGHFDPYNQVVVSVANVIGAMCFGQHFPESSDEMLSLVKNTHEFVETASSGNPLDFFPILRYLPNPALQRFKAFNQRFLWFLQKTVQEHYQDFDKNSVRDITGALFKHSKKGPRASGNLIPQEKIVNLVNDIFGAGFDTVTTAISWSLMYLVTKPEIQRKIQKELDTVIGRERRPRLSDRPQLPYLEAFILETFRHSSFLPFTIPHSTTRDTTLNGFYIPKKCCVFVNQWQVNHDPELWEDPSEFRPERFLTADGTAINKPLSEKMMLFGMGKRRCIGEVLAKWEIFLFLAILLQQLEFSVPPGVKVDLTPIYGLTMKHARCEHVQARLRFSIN
pIC50: −log10 of the molar value.
observable: pIC50

Exam item: I am curious: what pIC50 value has been reported for NCC(F)C[C@@H](N)CNC(=O)c1cc2ccc(-c3ccc(F)cc3)cc2[nH]1 (stereo partly shown) ?
Marked response: < 4.00
